assay-target: T1, human Fc tagged human Lag3 extra cellular domain (human, UniProt P18627 29-450, biotinylated in the epitope binning, the SA CAP SPR and the FACS competition assay)
T1 construct: In-house fusion; also called huLag3-Fc; biotinylated, huFc-tagged huLag3; not shown: human Fc tag
T1 sequence: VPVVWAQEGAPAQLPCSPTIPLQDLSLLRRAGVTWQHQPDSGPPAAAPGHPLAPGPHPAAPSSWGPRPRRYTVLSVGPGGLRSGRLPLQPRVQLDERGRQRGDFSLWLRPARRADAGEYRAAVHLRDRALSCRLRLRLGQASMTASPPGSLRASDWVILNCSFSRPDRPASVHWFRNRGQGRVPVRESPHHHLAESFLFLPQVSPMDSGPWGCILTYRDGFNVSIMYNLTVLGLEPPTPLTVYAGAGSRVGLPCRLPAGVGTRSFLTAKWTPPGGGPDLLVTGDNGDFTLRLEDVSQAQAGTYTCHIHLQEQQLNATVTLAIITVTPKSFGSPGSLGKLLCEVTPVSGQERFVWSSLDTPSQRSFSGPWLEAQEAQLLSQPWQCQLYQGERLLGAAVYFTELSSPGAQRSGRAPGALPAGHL
assay-info: SPR (Biacore T200), huLag3-Fc captured, antibody Fab fragment as analyte, 25 °C
For each record, write down the corresponding koff.
Your answer is read as s⁻¹, so omit the unit and give the number.

koff for aLAG3(0416) Fab fragment (Fab, V domains shown) VH: EVQLVESGGGLVQPGGSLRLACAASGFTFSDYAMSWVRQAPGKGLEWVSGIDNSGYYTYYTDSVKGRFTISRDDVKNTLYLQMNSLRAEDTAVYLCTKTHSGLIVNDAFDIWGQGTMVTVSS VL: DIQLTQSPSSLSASVGDRVTITCRASQSISSYLNWYQQKPGKAPKLLIYDASSLESGVPSRFSGSGSGTDATLTISSLQPEDFATYYCQQSYSTPLTFGGGTKVEIK is 0.000221

koff for aLAG3(0411) Fab fragment (Fab, V domains shown, also called aLAG3 (411)) VH: EVHLLESGGGLVQPGGSLRLSCAASGFIVDDYTMNWVRQAPGKGLEWVSVISWDGGATYYADSVKGRFTISRDDFKNTLYLQMNSLRAEDTAVYYCAKGLTDDTLYGSDYWGQGTLVTVSS VL: DIQMTQSPSSLSASVGDRVTITCRASQSIVSYLNWYQQKPGKAPKLLIYASSSLQSGVPSRFSGSGSGTDFTLTISSLQPEDFATYYCQQTYSTPLTFGGGTKVEIK is 3.87e-05

koff for aLAG3(0414) Fab fragment (Fab, V domains shown) VH: EVQLLESGGGLVQPGGSLRLSCAASGFIFDDYTMNWVRQAPGKGLEWVAVISWDGGGTYYTDSVKGRFTISRDDFKNTLYLQMNSLRAEDTAVYYCAKGLTDTTLYGSDYWGQGTLVTVSS VL: DIQMTQSPSSLSASVGDRVTITCRASQSISSYLNWYQQKPGKAPKLLIYAASTLQSGVPSRFSGSGSGTDFTLTISSLQPEDFATYYCQQTYSSPLTFGGGTKVEIK is 0.000195

koff for MDX-25F7 (25F7) Fab fragment (Fab, V domains shown) VH: QVQLQQWGAGLLKPSETLSLTCAVYGGSFSDYYWNWIRQPPGKGLEWIGEINHNGNTNSNPSLKSRVTLSLDTSKNQFSLKLRSVTAADTAVYYCAFGYSDYEYNWFDPWGQGTLVTVSS VL: EIVLTQSPATLSLSPGERATLSCRASQSISSYLAWYQQKPGQAPRLLIYDASNRATGIPARFSGSGSGTDFTLTISSLEPEDFAVYYCQQRSNWPLTFGQGTNLEIK is 0.000386
